assay: chemical genetic growth profiling, strain panel (AID 1159580);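 also: tested at 20 µM; growth read once vehicle control cultures reached saturation at 30 °C; 1 = growth at the plate median or of vehicle wells; lower values mean less growth of the strain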; settings: S. cerevisiae deletion strains, growth OD, locus YHR079C, strain IRE1 (second series), stronger effect = lower value
About 2,000 (36%) of roughly 5,500 compounds were called active. Inconclusive results (about 18%) are left out. The list shows a part of the results.
measurement_name: normalized growth
Just the number, please, no unit attached.

molecule	normalized growth
FC(F)(F)c1cccc(N2CCNCC2)c1	0.998
CC(C)/C(O)=C1/C(=O)O[C@@H](c2ccoc2)[C@]2(C)C(O)[C@@H](O)[C@@]34OC5(C)OC67CC(C)(C(O)[C@]6(O)[C@@H](O)[C@]3(O5)C12)[C@H](CC(=O)O)[C@]74C (stereo partly drawn)	1.01

Ask | Reported normalized growth, molecule Clc1ccc(C(c2ccccc2Cl)C(Cl)Cl)cc1 (stereo not drawn) : ____
Reply | 0.983

====

assay: chemical genetic growth profiling, strain panel (AID 1159580);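 also: tested at 20 µM; growth read once vehicle control cultures reached saturation at 30 °C; 1 = growth at the plate median or of vehicle wells; lower values mean less growth of the strain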; settings: S. cerevisiae deletion strains, growth OD, locus YIL125W, strain kgd1, stronger effect = lower value
Screen size: about 5,500 compounds; about 2,000 (36%) were called active. Another 18% or so got no clear call; they are omitted. Some of the results follow.
measurement_name: normalized growth

Ask | Reported normalized growth, compound Fc1ccc([C@@H]2CCNC[C@H]2COc2ccc3c(c2)OCO3)cc1 : ____
Reply | 0.997 (inactive)

Ask | Reported normalized growth, compound CN(C)CCC(c1ccccc1)c1ccccn1 (centres undefined) : ____
Reply | 1.01 (inactive)

Ask | Reported normalized growth, compound CC(=O)OCC(=O)[C@@]1(O)CCC2C3CCC4=CC(=O)C=CC4(C)C3[C@@H](O)C[C@@]21C (some centres undefined) : ____
Reply | 1.01 (inactive)

Ask | Reported normalized growth, compound CCC(C)C(=O)c1c(O)c(C)c2oc3c(C)c(O)c(C(=O)C(C)CC)c(O)c3c2c1O (centres undefined) : ____
Reply | 0.997 (inactive)

====

assay: chemical genetic growth profiling, strain panel (AID 1159580);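 also: tested at 20 µM; growth read once vehicle control cultures reached saturation at 30 °C; 1 = growth at the plate median or of vehicle wells; lower values mean less growth of the strain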; conditions: S. cerevisiae deletion strains, growth OD, locus YJL095W, strain BCK1 (second series), stronger effect = lower value
About 2,000 (36%) of roughly 5,500 compounds were called active. Roughly 18% stayed inconclusive and do not appear here. The list shows a part of the results.
Decision: normalized growth beneath 1 gives Satisfied; normalized growth meeting or exceeding 1 gives Not satisfied.

Previously resolved entries follow.
molecule	assigned_class
CC(=O)C1CCC2C3CCC4C[C@H](O)CCC4(C)C3C[C@H](O)C12C (stereo not given in full)	Satisfied
Cc1oncc1C(=O)Nc1ccc(C(F)(F)F)cc1	Satisfied
CN1CCC[C@@H]1CCO[C@](C)(c1ccccc1)c1ccc(Cl)cc1	Satisfied

Ask | Just wondering, is normalized growth of NCCCCC(=O)O below 1?
Reply | Not satisfied

====

experiment: chemical genetic growth profiling, strain panel (AID 1159580);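 also: tested at 20 µM; growth read once vehicle control cultures reached saturation at 30 °C; 1 = growth at the plate median or of vehicle wells; lower values mean less growth of the strain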; settings: S. cerevisiae deletion strains, growth OD, locus YOR069W, strain VPS5, stronger effect = lower value
In all, about 5,500 compounds went through this assay and about 2,000 (36%) were called active. Roughly 18% stayed inconclusive and do not appear here. Some of the results follow.
Quick list: normalized growth per entry.

Some solved cases for reference:
molecule	measurement_name	value
NCCCCC(=O)O	normalized growth	1.01 (inactive)
COc1ccc2oc3ccccc3c(=O)c2c1	normalized growth	0.918 (active)
CN[C@@H]1C(OC2[C@H](O[C@H]3[C@H](O)[C@@H](O)[C@H](N=C(N)N)[C@@H](O)[C@@H]3N=C(N)N)OC(C)[C@]2(O)CO)OC(CO)C(O)C1O (stereo not given in full)	normalized growth	0.993 (inactive)

Ask | Reported normalized growth, molecule CC(=O)O[C@H]1C[C@@]2(C)[C@@H](C[C@@H](O)C3[C@]2(C)CC[C@H]2[C@H](C)[C@H](O)CC[C@]32C)/C1=C(/CCC=C(C)C)C(=O)O (stereo not given in full) : ____
Reply | 1.02 (inactive)

Ask | Reported normalized growth, molecule CC(=O)N[C@@H](CCC(=O)O)C(=O)O : ____
Reply | 1.01 (inactive)

Ask | Reported normalized growth, molecule C[C@]12CCC3C(CC[C@H]4C[C@H](O)CC[C@]34C)C1CC[C@@H]2O (stereo not given in full) : ____
Reply | 0.957 (inactive)

Ask | Reported normalized growth, molecule O=C(O)CCCCCCCC(=O)O : ____
Reply | 0.998 (inactive)

Ask | Reported normalized growth, molecule COc1cc(C)c2c(=O)cc(-c3ccccc3)oc2c1 : ____
Reply | 0.979 (inactive)
